Overview of reported hERG current change (%, negative = inhibition) at 10uM across a group of compounds:
- Tested on: human ether-à-go-go-related gene (hERG) potassium channel (human);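 also: peak tail current of the secondary pulse compared with the same well before compound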
- Sequence (Q12809 whole entry, looked up): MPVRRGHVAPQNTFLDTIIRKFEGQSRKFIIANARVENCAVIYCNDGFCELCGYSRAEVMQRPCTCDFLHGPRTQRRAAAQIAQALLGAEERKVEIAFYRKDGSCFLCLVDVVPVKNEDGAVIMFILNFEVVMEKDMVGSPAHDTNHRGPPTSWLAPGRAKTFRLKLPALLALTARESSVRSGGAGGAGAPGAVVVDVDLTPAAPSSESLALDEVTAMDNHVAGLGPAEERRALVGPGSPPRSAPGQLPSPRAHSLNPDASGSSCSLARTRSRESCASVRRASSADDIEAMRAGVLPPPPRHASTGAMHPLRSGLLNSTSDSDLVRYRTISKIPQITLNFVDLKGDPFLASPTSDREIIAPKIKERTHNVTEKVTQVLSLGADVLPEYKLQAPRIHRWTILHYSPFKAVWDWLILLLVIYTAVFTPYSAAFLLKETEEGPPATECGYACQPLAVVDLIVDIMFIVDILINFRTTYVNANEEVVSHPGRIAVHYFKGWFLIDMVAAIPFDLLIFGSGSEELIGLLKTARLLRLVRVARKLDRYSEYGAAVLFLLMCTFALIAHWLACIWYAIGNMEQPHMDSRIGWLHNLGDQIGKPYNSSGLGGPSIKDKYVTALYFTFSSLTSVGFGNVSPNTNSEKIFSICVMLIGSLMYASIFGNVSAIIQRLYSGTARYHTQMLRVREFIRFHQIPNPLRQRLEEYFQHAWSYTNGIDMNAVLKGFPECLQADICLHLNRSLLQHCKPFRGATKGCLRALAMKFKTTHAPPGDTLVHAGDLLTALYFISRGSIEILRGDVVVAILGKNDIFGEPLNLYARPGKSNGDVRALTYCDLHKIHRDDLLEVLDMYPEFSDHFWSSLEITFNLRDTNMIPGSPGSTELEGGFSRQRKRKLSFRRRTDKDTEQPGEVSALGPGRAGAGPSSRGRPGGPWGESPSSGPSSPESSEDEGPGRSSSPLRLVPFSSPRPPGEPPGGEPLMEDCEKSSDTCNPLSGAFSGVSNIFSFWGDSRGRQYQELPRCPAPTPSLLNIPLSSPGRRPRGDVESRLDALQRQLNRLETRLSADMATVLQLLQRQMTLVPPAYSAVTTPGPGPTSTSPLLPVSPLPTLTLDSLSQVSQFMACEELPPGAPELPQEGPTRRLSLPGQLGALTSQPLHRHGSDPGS
- Assay details: primary screen, population patch clamp on CHO cells stably expressing hERG; higher = less effect of the substance
The whole screen tested about 310,000 compounds, of which about 14,000 (4.5%) showed an effect of 50% or more. Effects have a minus sign here. Many of the other results were omitted from the sample, so strong results are more common in it than they were.
# unit: % | format: bare number

Note down hERG current change (%, negative = inhibition) at 10uM recorded for NC(=O)COC(=O)c1ccccc1SCC(=O)NC1CCCCCCC1 12

Indicate the recorded hERG current change (%, negative = inhibition) at 10uM value for this compound: C=CCc1cccc(CNc2cnc3ccccc3c2)c1O -4.21

Return hERG current change (%, negative = inhibition) at 10uM for the following compound: COc1ccccc1NC(=O)CN1CCN(c2ccccc2F)CC1 -18.4

Consider the compound CCN(CC)c1ccc(NC(=O)CN2CCN(CC(=O)Nc3ccccc3OC)CC2)cc1 and give its recorded hERG current change (%, negative = inhibition) at 10uM. -26.9

Tell me measured hERG current change (%, negative = inhibition) at 10uM for Cc1cc(C)nc(SCCCNCc2ccc(Br)cc2)n1.Cl please. -36.1

Item Oc1c(Cl)cc(Cl)cc1/C=N/c1nccs1 : provide hERG current change (%, negative = inhibition) at 10uM -11.8

Indicate its recorded hERG current change (%, negative = inhibition) at 10uM; the compound in question is Cc1nc(NS(=O)(=O)c2ccccc2)sc1C(=O)N/N=C/c1ccccc1 -2

Tell me measured hERG current change (%, negative = inhibition) at 10uM for COc1cc(NC(=O)CN2CCN(CC(=O)Nc3ccccc3OC)CC2)cc(OC)c1 please. 0.0651

Retrieve hERG current change (%, negative = inhibition) at 10uM measured for COc1ccccc1N1CCN(CC(=O)Nc2ccc(C)c(F)c2)CC1 and print it. -23.1

Please look at this compound and report its hERG current change (%, negative = inhibition) at 10uM: N#Cc1c(N)nc2c(c1N)CC(COc1ccccc1)O2 (stereo not shown) -6.98
